species: Rattus norvegicus; assay: Open TG-GATES - Regimen: Daily Repeat; format: toxicity, organism-based, Sprague-Dawley; parameters: regimen Daily Repeat, gender Male, age 6 weeks; conditions: in vivo, po, 0 mg/kg, […], tissue Blood, route gavage, dose level Control, time 7 day
Entries and their APTT
Express the result in s but write the number alone.

Completed entries (count: 4):
NC(=O)N/N=C/c1ccc([N+](=O)[O-])o1 [NITROFURAZONE]: 16.9
CC(=O)Oc1ccccc1C(=O)O [ASPIRIN]: 21.2
COc1ccc2c(c1)c(CC(=O)O)c(C)n2C(=O)c1ccc(Cl)cc1 [INDOMETHACIN]: 16.5
Cn1c(=O)c2[nH]cnc2n(C)c1=O.O [THEOPHYLLINE]: 21.8

Write down APTT measured for item NC(=O)N1c2ccccc2C=Cc2ccccc21 [CARBAMAZEPINE]
21.2
